Values from PubChem BioAssay (NCI)

# Tested on: MCF7 breast
# EXPERIMENT SUMMARY: NCI-60 one-dose screen, 48 h (100 = growth as untreated, 0 = no growth, -100 = all killed)
# CONDITIONS USED: 10 µM
# Description: Growth inhibition of the MCF7 human tumor cell line is measured as a screen for anti-cancer activity. Cells are grown in 96 well plates and exposed to the test compound for 48 hours. Compounds are tested at a single concentration, which is 10^-5 M for most compounds. The reported endpoint is percent growth (GI% or GIPRCNT), where numbers from 0 - 100% represent growth inhibition, and numbers from -100% - 0 represent cell death. For example, a value of 40 represents 60% growth inhibition. […]
Compounds without any hit were thinned out: in the full panel of roughly 83,000, 20% have a hit.
READOUT: growth (%)
Provide only the numeric value, understood in %.

### Prompt Using the record for COc1ccc(/C=C/C(=O)Nc2ccc(-c3nc4ccc(OC)cc4s3)cc2)cc1 , report its growth.
### Response 85.3

### Prompt Requested read-out: growth. Entry: COc1cc(NC(=O)CCSc2nc3ccc(C)cc3c(=O)n2Cc2ccccc2)cc(OC)c1OC
### Response 77.6

### Prompt Item COc1ccc(-c2nc3sc(C4CC4)nn3c2/C=C2/C(=O)Nc3ccc(OC)cc32)cc1 has what recorded growth?
### Response 30.1

### Prompt Quick check: growth of COc1ccc(-c2nnc(-c3c(-c4ccccc4)nc4ncccn34)o2)cc1OC ?
### Response 102

### Prompt What value of measured growth is listed for COc1ccc(-c2nc(-c3nc4ccc(OC)cc4[nH]3)cc3c2[nH]c2ccccc23)cc1 ?
### Response 31.8

### Prompt Consider the molecule shown here: COc1ccc(-c2nc3sccn3c2-c2nc3c([nH]2)C(=O)c2ccccc2C3=O)cc1 What is its recorded growth?
### Response 83.8

### Prompt // query growth value for entry Nc1nc(Nc2ccccc2)n[nH]1
### Response 95.8

### Prompt May I ask what growth has been recorded for Cc1cc(Cl)nc(N(CCCNc2ccnc3cc(Cl)ccc23)Cc2cccs2)n1 ?
### Response 10.7

### Prompt Return reported growth; argument: CCOC(=O)N1C/C(=C/c2ccc(F)cc2)C(=O)/C(=C/c2ccc(F)cc2)C1
### Response -45.9

### Prompt Which growth value belongs to Cc1cc(N(CCCNc2ccnc3cc(Cl)ccc23)Cc2cccs2)nc(Cl)n1 ?
### Response 40.8

###

# Test system: MOLT-4 leukemia
# EXPERIMENT SUMMARY: NCI-60 one-dose screen, 48 h (100 = growth as untreated, 0 = no growth, -100 = all killed)
# CONDITIONS USED: 10 µM
Compounds without any hit were thinned out: in the full panel of roughly 83,000, 20% have a hit.
Task for the reader: assign each of the following compounds its reported growth.
Respond numerically; units are % and should not be typed.

### Prompt Give recorded growth with MOLT-4 leukemia for the following compound: O=C(C[P+](c1ccccc1)(c1ccccc1)c1ccccc1)C[P+](c1ccccc1)(c1ccccc1)c1ccccc1
### Response -28.9

### Prompt I'm curious: which growth was measured for COc1cc2c(cc1OCCCN1CCN(c3ncnc4ccccc34)CC1)N=CC1CCCN1C2=O (stereo not given) tested on MOLT-4 leukemia?
### Response -44.3

### Prompt Find growth (MOLT-4 leukemia) for the entry Fc1ccc(-c2nnc(-c3c(-c4ccc(F)cc4)nc4ccccn34)o2)cc1
### Response 100

### Prompt Form entry - test system: MOLT-4 leukemia; read-out: growth; compound: Cc1cc(Cl)nc(N(CCCNc2ccnc3cc(Cl)ccc23)Cc2cccs2)n1
### Response -17.6

### Prompt Give recorded growth with MOLT-4 leukemia for the following compound: Clc1ccc(-c2cn(-c3ccccc3)c(-c3ccccc3)n2)c(Cl)c1
### Response 6.15

### Prompt Find growth (MOLT-4 leukemia) for the entry S=C1SCC(c2ccccc2)S1 (stereo not given)
### Response 107

### Prompt Give MOLT-4 leukemia growth for c1ccc(C(NC2CC3CCC2C3)c2ccccc2)cc1 (stereo not given)
### Response 94

### Prompt Form: Entry = O=C(CC(c1ccccc1)N1CCOCC1)c1ccccc1 (stereo not given) | System = MOLT-4 leukemia | growth = ____
### Response 82.3

### Prompt Record CCCCC(CCCCCC(CCCC)NCc1ccc2c(c1)OCO2)NCc1ccc2c(c1)OCO2 (stereo not given) : what is its growth with MOLT-4 leukemia?
### Response -66.7

### Prompt # returns recorded growth (system: MOLT-4 leukemia) for COc1ccc(-c2nn(-c3cccc(NC(=O)c4cccc(C(F)(F)F)c4)c3)cc2-c2ccncc2)cc1Cl
### Response 24
